target.under.test: BACE1 enzyme (Homo sapiens)
Construct: The HEK293-9B.A1 cell line, which overexpresses the BACE1 enzyme, was derived from HEK293 cells; endogenous in cells; washed 48,000 x g pellet of the cell homogenate
Sequence (P56817 46-501): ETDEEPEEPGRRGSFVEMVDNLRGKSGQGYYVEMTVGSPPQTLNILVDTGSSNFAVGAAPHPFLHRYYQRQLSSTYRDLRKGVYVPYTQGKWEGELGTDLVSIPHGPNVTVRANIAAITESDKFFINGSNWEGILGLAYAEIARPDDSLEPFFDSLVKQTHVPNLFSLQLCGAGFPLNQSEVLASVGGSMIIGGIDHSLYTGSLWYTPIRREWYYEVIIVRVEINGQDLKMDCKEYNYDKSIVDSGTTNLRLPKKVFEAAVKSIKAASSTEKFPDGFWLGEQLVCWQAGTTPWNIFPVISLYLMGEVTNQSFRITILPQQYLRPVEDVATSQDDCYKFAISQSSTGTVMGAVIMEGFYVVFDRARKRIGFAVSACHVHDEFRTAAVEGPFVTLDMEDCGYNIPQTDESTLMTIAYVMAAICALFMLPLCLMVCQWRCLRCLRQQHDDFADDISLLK
assay.text: Radioligand displacement assay with a radiolabeled BACE inhibitor on HEK293-9B.A1 cell homogenate
Type: binding
condition: displacement of 1 nM tritiated radioligand, HEK293-9B.A1 homogenate, pH 5.0, 1.5 hr at 25° C.; read-out: Activity Rating (activity based on IC50 values)
Counter-ions that a name gives are not always drawn.
measured.property: IC50

Below, 3 compounds whose answers are already recorded.
Simply: CCCN(CCC)C(=O)c1cc(C(=O)N[C@@H](Cc2cc(F)cc(F)c2)[C@H](O)CNCc2cccc(OC)c2)cc(/C(C)=N/OCC(C)C)c1 [Example 6, TFA salt] , BACE1 enzyme (Homo sapiens), IC50 = < 100 nM

Simply: CCCN(CCC)C(=O)c1cc(C(=O)N[C@@H](Cc2cc(F)cc(F)c2)[C@H](O)CNCc2cccc(OC)c2)cc(/C(C)=N/OC)c1 [Example 3, TFA salt] , BACE1 enzyme (Homo sapiens), IC50 = < 100 nM

Simply: COc1cccc(CNC[C@@H](O)[C@H](Cc2cc(F)cc(F)c2)NC(=O)c2cc(C(C)=O)cc(N3CCCCS3(=O)=O)c2)c1 [Example 22, TFA salt] , BACE1 enzyme (Homo sapiens), IC50 = < 100 nM

Next:
Simply: CCCO/N=C(\C)c1cc(C(=O)N[C@@H](Cc2cc(F)cc(F)c2)[C@H](O)CNCc2cccc(OC)c2)cc(S(C)(=O)=O)c1 [Example 19, TFA salt] , BACE1 enzyme (Homo sapiens), IC50 = 100 to 1000 nM

---

target.under.test: BACE1 enzyme (Homo sapiens)
Construct: The HEK293-9B.A1 cell line, which overexpresses the BACE1 enzyme, was derived from HEK293 cells; endogenous in cells; washed 48,000 x g pellet of the cell homogenate
assay.text: Radioligand displacement assay with a radiolabeled BACE inhibitor on HEK293-9B.A1 cell homogenate
Format: binding
condition: displacement of 1 nM tritiated radioligand, HEK293-9B.A1 homogenate, pH 5.0, 1.5 hr at 25° C.; read-out: Activity Rating (activity based on IC50 values)
pIC50: −log10 of the molar value. Counter-ions that a name gives are not always drawn.
measured.property: pIC50

// pIC50 lookup, compound = COc1cccc(CNC[C@@H](O)[C@H](Cc2cc(F)cc(F)c2)NC(=O)c2cc(/C(C)=N/OCc3ccccc3)cc(N3CCCCS3(=O)=O)c2)c1 [Example 25, TFA salt] , result: > 7.00

// pIC50 lookup, compound = CCCN(C)C(=O)c1cc(C(=O)N[C@@H](Cc2cc(F)cc(F)c2)[C@H](O)CNCc2cccc(OC)c2)cc(/C(C)=N/OCc2ccccc2)c1 [Example 11, hydrochloride] , result: > 7.00

// pIC50 lookup, compound = CO/N=C(\C)c1cc(C(=O)N[C@@H](Cc2cc(F)cc(F)c2)[C@H](O)CNCc2cccc(OC)c2)cc(N2CCCCS2(=O)=O)c1 [Example 24, TFA salt] , result: > 7.00

Next:
// pIC50 lookup, compound = COc1cccc(CNC[C@@H](O)[C@H](Cc2cc(F)cc(F)c2)NC(=O)c2cc(/C(C)=N/OCc3ccccc3)cc(N(c3ccccc3)S(C)(=O)=O)c2)c1 , result: > 7.00

// pIC50 lookup, compound = C=CCO/N=C(\C)c1cc(C(=O)N[C@@H](Cc2cc(F)cc(F)c2)[C@H](O)CNCc2cccc(OC)c2)cc(C(=O)N(CCC)CCC)c1 [Example 7, TFA salt] , result: > 7.00

// pIC50 lookup, compound = COc1cccc(CNC[C@@H](O)[C@H](Cc2cc(F)cc(F)c2)NC(=O)c2cc(C(C)=O)cc(S(C)(=O)=O)c2)c1 [Example 16, TFA salt] , result: 6.00 to 7.00

// pIC50 lookup, compound = CCCN(CCC)C(=O)c1cc(C(=O)N[C@@H](Cc2cc(F)cc(F)c2)[C@H](O)CNCc2cccc(OC)c2)cc(C(C)O)c1 (some centres unmarked) [Example 2, TFA salt] , result: > 7.00

// pIC50 lookup, compound = CCCN(C)C(=O)c1cc(C(=O)N[C@@H](Cc2cc(F)cc(F)c2)[C@H](O)CNCc2cccc(OC)c2)cc(/C(C)=N/OCC(C)C)c1 [Example 12, hydrochloride] , result: > 7.00

// pIC50 lookup, compound = COc1cccc(CNC[C@@H](O)[C@H](Cc2cc(F)cc(F)c2)NC(=O)c2cc(/C(C)=N/OCC(C)C)cc(N(C)S(C)(=O)=O)c2)c1 [Example 33, TFA salt] , result: 6.00 to 7.00

// pIC50 lookup, compound = CCCO/N=C(\C)c1cc(C(=O)N[C@@H](Cc2cc(F)cc(F)c2)[C@H](O)CNCc2cccc(OC)c2)cc(C(=O)N(C)CCC)c1 , result: > 7.00

// pIC50 lookup, compound = CCCN(CCC)C(=O)c1cc(C(=O)N[C@@H](Cc2cc(F)cc(F)c2)[C@H](O)CNCc2cccc(OC)c2)cc(/C(C)=N/O)c1 [Example 5, hydrochloride] , result: > 7.00

Hey, just so you know, these numbers are from patent US7476764B2.
